molecular target: ScNbp2; assay: SPOT peptide array binding signal intensity (averaged, normalized) (arbitrary units (background-subtracted, floor 0; scale differs between SH3 domains)); higher = stronger binding of the SH3 domain to the peptide
Attribute: SPOT peptide array binding signal intensity
I only need the number, thanks.

Below are worked cases with known answers.
>  <Binder>
IKTRSVPKIPSIESV

>  <Reported measurement>
3220

$$$$
>  <Binder>
NMLSRPRLAKLPSIR

>  <Reported measurement>
370

$$$$
>  <Binder>
GTIARPLFLVVLFFI

>  <Reported measurement>
78.5

$$$$
>  <Binder>
QRIRKIPGIPLMSVG

>  <Reported measurement>
672

$$$$
>  <Binder>
QFDLKMPSKPIHNLK

>  <Reported measurement>
79.5

$$$$

Consider the additional binder presented here.
What SPOT peptide array binding signal intensity value was documented for this binder, MARRRLPDRPPNGIG ?
523
